Entry source: patent US20100047253A1

target: T1, Recombinant Human IL-13 (R & D 213-IL-005) (human, UniProt P35225 35-146); assay: SPR (Biacore 2000), mAb captured on goat anti-human surface, IL-13 (R&D) injected, 1:1 model
T1 construct: also called IL-13 antigen (R&D Systems)
T1 sequence (P35225 35-146 limits assumed): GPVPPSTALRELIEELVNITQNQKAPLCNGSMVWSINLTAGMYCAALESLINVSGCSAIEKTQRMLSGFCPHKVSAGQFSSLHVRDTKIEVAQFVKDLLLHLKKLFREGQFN

{"columns": ["binder", "endpoint unit", "kon"],
 "data": [
  ["mAb 643 (antibody, V domains shown) VH: EVQLVESGGGLVKPGGSLRLSCAASGFTFSNAWMSWVRQAPGKGLEWVGRIRSEIDGGTTNYAAPVKGRFTISRDDSKNTLYLQMNSLRTEDTAVYYCATDQVGAYYGDYYGMDVWGQGTTVTVSS VL: SYELTQPPSVSVSPGQTARITCSGDALPEKYAYWYQQKSGQAPVLVIYEDSKRPSGIPERFSGSSSGTMATLTISGAQVEDEADYYCHSTDSSGNHGVFGGGTKLTVLG", "M⁻¹ s⁻¹", "4.4e+06"],
  ["mAb 731 (antibody, V domains shown, also called sc731) VH: EVQLLESGGGLVQPGGSLRLSCAASGFTFSSYAMSWVRQAPGKGLEWVSAFSGSGGSTYYADSVKGRFTISRDNSKNTLYLQMNSLRAEDTAVYYCVQDGLGPYFYNYGMDVWGQGTTVTVSS VL: SYELTQPPSVSVSPGQTASITCSGDKLGDKYACWFQQKPGQSPVLVIYHDSKRPSGIPERFSGSNSGDTATLTISGTQAMDEADYYCQAWDSSTYVFGTGTKVTVLG", "M⁻¹ s⁻¹", "3.9e+06"],
  ["mAb 623 (antibody, V domains shown, also called sc623) VH: EVQLVESGGGLVKPGGSLRLSCAASGFTFSNAWMSWVRQAPGKGLEWVGRIRSEIDGGTTNYAAPVKGRFTISRDDSKNTLYLQMNSLKTEDTAVYYCATDQVGAYYGDYYGMDVWGQGTTVTVSS VL: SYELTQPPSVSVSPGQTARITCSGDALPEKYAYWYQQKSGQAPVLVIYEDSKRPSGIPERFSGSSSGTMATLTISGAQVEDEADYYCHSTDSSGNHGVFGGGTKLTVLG", "M⁻¹ s⁻¹", "4.9e+06"]
]}
